Please go through the items and note down their pKd.
target: T1, mouse RAGE (mRAGE) fused to EGFP, expressed on CHO cells (mouse, UniProt Q62151 23-402)
T1 chain: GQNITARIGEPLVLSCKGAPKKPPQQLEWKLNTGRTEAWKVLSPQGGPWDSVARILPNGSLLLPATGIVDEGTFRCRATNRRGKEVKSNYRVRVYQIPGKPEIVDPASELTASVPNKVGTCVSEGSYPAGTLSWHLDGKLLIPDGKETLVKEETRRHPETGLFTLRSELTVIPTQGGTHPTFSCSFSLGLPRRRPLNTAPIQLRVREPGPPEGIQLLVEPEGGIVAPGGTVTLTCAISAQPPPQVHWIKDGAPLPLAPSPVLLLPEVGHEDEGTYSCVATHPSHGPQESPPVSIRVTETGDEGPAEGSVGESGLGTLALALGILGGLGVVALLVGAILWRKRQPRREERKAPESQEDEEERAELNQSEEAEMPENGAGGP
assay_protocol: flow cytometry on CHO-mRAGE-EGFP cells; apparent Kd; column head prints TfR, legend says RAGE
In simple prose, pKd is minus the logarithm base ten of a concentration in moles per litre.

Provide pKd value for the following binder: VHH 1-Fc (Fc fusion) QVQLVQSGGGLVQPGGSLRLSCAVSGSIFSSATMGWYRQAPGKQRELAARISSGGSTNYLDSVKGRFTISRDNAKNTVYLQMNSLKLEDTAVYYCRLQANFGLVDYWGKGTQVTVSS 8.72

Identify the reported pKd for the following entry. VHH 4-Fc (Fc fusion) EVQLVESGGGLVQAGGSLRLSCVASGRTFSNYAMAWFRQAPGEEREFVARISWRGGRTSYADSVKGRFTISRDNAKNTVYLQMISLKPEDTAVYYCASEGGAFGGVYSATGSYDYWGQGTQVTVSS 8.85

Report pKd for VHH 2-Fc (Fc fusion) QVQLVQSGGGLVQAGGSLRLSCAASGSVSSIYAMGWYRQAPGKQREWVTTITGRGITDYAASVKGRFTISRDTAKNAVYLQMNNLKPEDTARYYCKIDRRGYAPYWGQGTQVTVSS 8.02

Give a short answer stating reported pKd for VHH 5-Fc (Fc fusion) EVQLVESGGGLVQPGGSLRLSCAASGTIFSLNPMGWYRQAPGKQLELVALISDSGTANYADFVRGRFTISRDTTKKTLYLQMNSLEPEDTAVYYCRSTFAAGNFYWGQGTQVTVSS . 6.82
